Tested on: A549 PARP2 KO
ASSAY METHOD TEXT: PARP selectivity experiment (pADPr immunofluorescence after H2O2 stimulation), A549 PARP2 KO cells
Format: cell-based
REPORTED CONDITIONS: Homo sapiens, 5 min; A549 PARP2 KO cells, H2O2 200 µM for 5 minutes
pIC50: −log10 of the molar value.
PROPERTY NAME: pIC50

SMILES STR	ASSAY VALUE
Cn1cc(NC(=O)c2ccc(N3CCN(Cc4ccc5nc(C(F)F)c(=O)[nH]c5c4F)CC3)c(F)n2)c(F)n1	9.20

* * *

ASSAY METHOD TEXT: Pharmacokinetic test in rats
Format: in vivo, SD rats
REPORTED CONDITIONS: iv; rat plasma, i.v. (2.5 mg/kg); read-out: Vdss

SMILES STR	Vd / L/kg
C=C1CC(NC(=O)c2ccc(O[C@H]3CN(Cc4ccc5nc(CC)c(=O)[nH]c5c4F)[C@@H]3C)c(F)n2)C1	0.855
Cn1cc(NC(=O)c2ccc(N3CCN(Cc4ccc5nc(C(F)F)c(=O)[nH]c5c4F)CC3)c(F)n2)c(F)n1	0.348

* * *

ASSAY METHOD TEXT: Pharmacokinetic test in rats
Assay type: in vivo, SD rats
REPORTED CONDITIONS: iv; rat plasma, i.v. (2.5 mg/kg)
Listed here: items and their measured AUC(0-t) at 24 h.

SMILES STR	MEASURE UNIT	AUC(0-t) at 24 h
Cn1cc(NC(=O)c2ccc(N3CCN(Cc4ccc5nc(C(F)F)c(=O)[nH]c5c4F)CC3)c(F)n2)c(F)n1	ng·h/mL	18700
C=C1CC(NC(=O)c2ccc(O[C@H]3CN(Cc4ccc5nc(CC)c(=O)[nH]c5c4F)[C@@H]3C)c(F)n2)C1	ng·h/mL	5720

* * *

ASSAY METHOD TEXT: Pharmacokinetic test in rats
Assay type: in vivo, SD rats
REPORTED CONDITIONS: plasma, po; rat, i.g. (10 mg/kg)

COMPOUND	bioavailability [%]
Cn1cc(NC(=O)c2ccc(N3CCN(Cc4ccc5nc(C(F)F)c(=O)[nH]c5c4F)CC3)c(F)n2)c(F)n1 [Compound 2]	66.8
C=C1CC(NC(=O)c2ccc(O[C@H]3CN(Cc4ccc5nc(CC)c(=O)[nH]c5c4F)[C@@H]3C)c(F)n2)C1 [Compound 8]	81.9

* * *

ASSAY METHOD TEXT: Pharmacokinetic test in rats
Assay type: in vivo, SD rats
REPORTED CONDITIONS: brain, iv; rat, 24 h after administration; cell spans the i.v. and i.g. lines; read-out: Brain/Plasma Ratio (24 h)

SMILES STR	Kp at 24 h
Cn1cc(NC(=O)c2ccc(N3CCN(Cc4ccc5nc(C(F)F)c(=O)[nH]c5c4F)CC3)c(F)n2)c(F)n1	1.03
C=C1CC(NC(=O)c2ccc(O[C@H]3CN(Cc4ccc5nc(CC)c(=O)[nH]c5c4F)[C@@H]3C)c(F)n2)C1	0.242

* * *

TESTED SYSTEM: PARP-1 (Homo sapiens, UniProt P09874)
Construct: purchased BPS 80501
Sequence (P09874 whole entry): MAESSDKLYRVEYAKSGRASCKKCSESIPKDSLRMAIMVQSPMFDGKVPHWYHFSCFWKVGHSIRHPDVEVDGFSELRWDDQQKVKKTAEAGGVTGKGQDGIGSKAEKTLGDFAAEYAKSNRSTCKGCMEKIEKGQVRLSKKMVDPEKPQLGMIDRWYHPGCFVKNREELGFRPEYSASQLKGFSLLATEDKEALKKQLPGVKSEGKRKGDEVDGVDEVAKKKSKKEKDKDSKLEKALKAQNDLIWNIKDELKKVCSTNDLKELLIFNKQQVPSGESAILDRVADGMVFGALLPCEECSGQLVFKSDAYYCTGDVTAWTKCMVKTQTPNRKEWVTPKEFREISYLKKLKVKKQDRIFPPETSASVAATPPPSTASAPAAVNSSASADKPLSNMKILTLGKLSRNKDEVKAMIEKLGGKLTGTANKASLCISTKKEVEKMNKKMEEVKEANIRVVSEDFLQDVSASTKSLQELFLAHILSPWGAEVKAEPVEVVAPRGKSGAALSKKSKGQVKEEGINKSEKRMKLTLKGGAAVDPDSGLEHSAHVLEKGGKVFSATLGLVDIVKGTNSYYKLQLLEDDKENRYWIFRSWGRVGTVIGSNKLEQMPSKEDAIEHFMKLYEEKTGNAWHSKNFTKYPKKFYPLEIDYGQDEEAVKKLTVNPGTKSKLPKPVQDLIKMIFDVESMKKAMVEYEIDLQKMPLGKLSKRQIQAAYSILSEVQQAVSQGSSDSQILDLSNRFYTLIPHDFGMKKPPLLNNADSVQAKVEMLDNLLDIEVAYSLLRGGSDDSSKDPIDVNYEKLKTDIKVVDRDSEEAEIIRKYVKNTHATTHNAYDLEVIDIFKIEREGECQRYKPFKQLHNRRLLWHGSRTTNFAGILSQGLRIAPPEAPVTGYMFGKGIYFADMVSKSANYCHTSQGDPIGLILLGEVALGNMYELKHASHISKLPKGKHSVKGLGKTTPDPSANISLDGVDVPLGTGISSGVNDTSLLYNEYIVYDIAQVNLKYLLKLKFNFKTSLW
ASSAY METHOD TEXT: PARP1 enzyme activity assay (FP method, fluorescent probe)
Assay type: biochemical
REPORTED CONDITIONS: PARP-1 enzyme activity, FP method; read-out: IC50
Listed here: items and their measured IC50.

MOLECULE	IC50 (nM)
CCc1nc2ccc(CN3CCN(c4ccc(C(=O)NC5CC(=C(F)F)C5)nc4F)CC3)c(F)c2[nH]c1=O (stereo not shown)	6.39
Cc1nc2ccc(CN3CCN(c4ccc(C(=O)NC5CC(=C(F)F)C5)nc4F)CC3)c(F)c2[nH]c1=O (stereo not shown)	3.14
C=C1CC(NC(=O)c2ccc(O[C@H]3CN(Cc4ccc5nc(C)c(=O)[nH]c5c4F)[C@@H]3C)c(F)n2)C1	7.94
CCc1nc2ccc(CN3CCN(c4ccc(NC(=O)c5cn(C)nc5F)nc4F)CC3)c(F)c2[nH]c1=O	10.5
Cn1ncc(C(=O)Nc2ccc(N3CCN(Cc4ccc5nc(C(F)F)c(=O)[nH]c5c4F)CC3)c(F)n2)c1F	17.1
C=C1CC(NC(=O)c2ccc(N3CCN(Cc4ccc5nc(C(F)F)c(=O)[nH]c5c4F)CC3)c(F)n2)C1	12.5
CCc1nc2ccc(CN3C[C@H](Oc4ccc(C(=O)NC5CC(=C(F)F)C5)nc4F)[C@H]3C)c(F)c2[nH]c1=O (stereo partly shown)	5.63

* * *

ASSAY METHOD TEXT: Pharmacokinetic test in rats
Assay type: in vivo, SD rats
REPORTED CONDITIONS: po; rat plasma, i.g. (10 mg/kg)
Listed here: items and their measured AUC(0-t) at 24 h.
PROPERTY NAME: AUC(0-t) at 24 h (ng·h/mL)

SMILES STR	MEASURE UNIT	ASSAY VALUE
Cn1cc(NC(=O)c2ccc(N3CCN(Cc4ccc5nc(C(F)F)c(=O)[nH]c5c4F)CC3)c(F)n2)c(F)n1	ng·h/mL	50000
C=C1CC(NC(=O)c2ccc(O[C@H]3CN(Cc4ccc5nc(CC)c(=O)[nH]c5c4F)[C@@H]3C)c(F)n2)C1	ng·h/mL	31800

* * *

Listed here: items and their measured IC50.
TESTED SYSTEM: PARP-1 (Homo sapiens, UniProt P09874)
Construct: purchased BPS 80501
ASSAY METHOD TEXT: PARP1 enzyme activity assay (FP method, fluorescent probe)
Type: biochemical

SMILES STR	MEASURE UNIT	IC50
CCc1nc2ccc(CN3CCN(c4ccc(C(=O)Nc5cnn(C)c5F)nc4F)CC3)c(F)c2[nH]c1=O	nM	3.38
C=C1CC(NC(=O)c2ccc(N3CCN(Cc4ccc5nc(C)c(=O)[nH]c5c4F)CC3)c(F)n2)C1	nM	3.25
Cn1ncc(NC(=O)c2ccc(N3CCN(Cc4ccc5nc(C(F)F)c(=O)[nH]c5c4F)CC3)c(F)n2)c1F	nM	10.5
Cn1cc(NC(=O)c2ccc(N3CCN(Cc4ccc5nc(C(F)F)c(=O)[nH]c5c4F)CC3)c(F)n2)c(F)n1	nM	10.8
C=C1CC(NC(=O)c2ccc(O[C@H]3CN(Cc4ccc5nc(CC)c(=O)[nH]c5c4F)[C@@H]3C)c(F)n2)C1	nM	5.42
C=C1CC(NC(=O)c2ccc(N3CCN(Cc4ccc5nc(CC)c(=O)[nH]c5c4F)CC3)c(F)n2)C1	nM	4.55
CCc1nc2ccc(CN3CCN(c4ccc(C(=O)Nc5cn(C)nc5F)nc4F)CC3)c(F)c2[nH]c1=O	nM	2.74
